Assign % UTC (Yap1 mRNA) to each entry below.
# System: Yap1 mRNA
# protocolDescription: Dose-dependent inhibition of human Yap1 in SNU-449 cells (Example 9, RTS36584)
# Assay type: cell-based
# assayConditions: 500.0 nM, free uptake, approximately 48 hours
# Method: Modified oligonucleotides described in the studies above were tested at various doses in SNU-449 cells. […] After approximately 48 hours, Yap1 mRNA levels were measured as previously described using the Human Yap1 primer-probe set RTS36584. Yap1 mRNA levels were normalized to total RNA content, as measured by RIBOGREEN®. […] IC50s were calculated using a linear regression on a log/linear plot of the data in excel.
Strand notation (5' to 3'): a small letter for the sugar, then the base; units joined by * are phosphorothioate-linked, units joined directly phosphodiester-linked; [ ] holds rarer units or linkages, { } end groups; capitals alone tell only the bases. e = 2'-O-(2-methoxyethyl) (MOE); k = constrained ethyl (cEt); [5mC] = 5-methylcytosine; d = 2'-deoxy (DNA); m = 2'-O-methyl
Answers are plain numbers, in % UTC.

// solved cases for % UTC (Yap1 mRNA) follow
1074462 (kG*kG*kA*dA*dA*dT*dT*dG*dT*d[5mC]*dT*d[5mC]*dA*kT*kG*k[5mC]; antisense) [compound 1074462] = 13
1074756 (kG*k[5mC]*kA*d[5mC]*dT*dT*dT*dT*dA*d[5mC]*dA*dT*dT*kA*kG*kG) [compound 1074756] = 6
1198804 (kT*kG*dT*d[5mC]*dT*d[5mC]*dA*dT*dG*d[5mC]*d[5mC]*kT*eT*kA*eT*kA; antisense) [compound 1198804] = 19

For each entry beneath this line, provide reported % UTC (Yap1 mRNA).
1. 1198470 (kT*kA*dT*dT*dA*dG*dA*dG*dT*dA*dT*eG*kT*eG*kG*e[5mC]; antisense) [compound 1198470]
2. 1198814 (kA*kG*dA*dG*dT*dA*dT*dG*dT*dG*dG*k[5mC]*eA*kA*eT*kA) [compound 1198814]

18
6

For each entry beneath this line, provide reported % UTC (Yap1 mRNA).
1. 1198203 (kG*kG*dA*dA*dA*dT*dT*dG*dT*d[5mC]*dT*e[5mC]*eA*eT*kG*k[5mC]) [compound 1198203]
2. 1198424 (k[5mC]*dT*d[5mC]*dT*dT*dA*dT*dA*dT*dG*dG*kT*eT*kT*eT*kG; antisense) [compound 1198424]
3. 1198872 (TGTATGTCAGAAGAGT; chemically modified gapmer, further chemistry not given here) [compound 1198872]
4. 1200858 (kA*kA*kG*dT*dG*mU*dA*dT*dG*dT*d[5mC]*dA*dG*kA*kA*kG; antisense) [compound 1200858]

[25, 24, 6, 14]

* * *

# System: Yap1 mRNA
# protocolDescription: Dose-dependent inhibition of human Yap1 in SNU-449 cells (Example 9, RTS36584)
# Format: cell-based
# assayConditions: 2000.00 nM, free uptake, approximately 48 hours
# Method: Modified oligonucleotides described in the studies above were tested at various doses in SNU-449 cells. […] After approximately 48 hours, Yap1 mRNA levels were measured as previously described using the Human Yap1 primer-probe set RTS36584. Yap1 mRNA levels were normalized to total RNA content, as measured by RIBOGREEN®. […] IC50s were calculated using a linear regression on a log/linear plot of the data in excel.
Strand notation (5' to 3'): a small letter for the sugar, then the base; units joined by * are phosphorothioate-linked, units joined directly phosphodiester-linked; [ ] holds rarer units or linkages, { } end groups; capitals alone tell only the bases. e = 2'-O-(2-methoxyethyl) (MOE); k = constrained ethyl (cEt); [5mC] = 5-methylcytosine; d = 2'-deoxy (DNA); m = 2'-O-methyl
Parameter threshold = 6 % UTC. Response is T when % UTC (Yap1 mRNA) meets or exceeds it, else F.

Worked cases, answers included:
1198611 (kA*kG*kT*dG*dT*dA*dT*dG*dT*d[5mC]*dA*dG*kA*kA*kG*eA; antisense) [compound 1198611] = F
1197271 (kT*kT*kT*dA*mA*dA*dG*dT*dG*dT*dA*dT*dG*kT*k[5mC]*kA; antisense) [compound 1197271] = T
1198353 (kA*kG*kT*dG*dT*dA*dT*dG*dT*d[5mC]*dA*dG*kA*eA*kG*eA; antisense) [compound 1198353] = F
1200796 (kT*kT*kA*dG*dA*mG*dT*dA*dT*dG*dT*dG*dG*k[5mC]*kA*kA; antisense) [compound 1200796] = T
1198788 (kA*eA*kG*dT*dG*dT*dA*dT*dG*dT*d[5mC]*dA*eG*eA*kA*kG) [compound 1198788] = F

Could you tell me if the measured % UTC (Yap1 mRNA) of 1198202 (kG*kA*dA*dA*dT*dT*dG*dT*d[5mC]*dT*d[5mC]*eA*eT*eG*k[5mC]*k[5mC]; antisense) [compound 1198202] reaches 6 % UTC or more? F

Could you tell me if the measured % UTC (Yap1 mRNA) of 1198525 (kA*kG*dT*dG*dT*dA*dT*dG*dT*d[5mC]*dA*eG*kA*eA*kG*eA) [compound 1198525] reaches 6 % UTC or more? F

Could you tell me if the measured % UTC (Yap1 mRNA) of 1198470 (kT*kA*dT*dT*dA*dG*dA*dG*dT*dA*dT*eG*kT*eG*kG*e[5mC]; antisense) [compound 1198470] reaches 6 % UTC or more? T

Could you tell me if the measured % UTC (Yap1 mRNA) of 1198297 (kA*kT*kT*dA*dG*dA*dG*dT*dA*dT*dG*dT*kG*eG*k[5mC]*eA) [compound 1198297] reaches 6 % UTC or more? T
